# systemName: Hexokinase-4 (Homo sapiens)
# Sequence (P35557 whole entry): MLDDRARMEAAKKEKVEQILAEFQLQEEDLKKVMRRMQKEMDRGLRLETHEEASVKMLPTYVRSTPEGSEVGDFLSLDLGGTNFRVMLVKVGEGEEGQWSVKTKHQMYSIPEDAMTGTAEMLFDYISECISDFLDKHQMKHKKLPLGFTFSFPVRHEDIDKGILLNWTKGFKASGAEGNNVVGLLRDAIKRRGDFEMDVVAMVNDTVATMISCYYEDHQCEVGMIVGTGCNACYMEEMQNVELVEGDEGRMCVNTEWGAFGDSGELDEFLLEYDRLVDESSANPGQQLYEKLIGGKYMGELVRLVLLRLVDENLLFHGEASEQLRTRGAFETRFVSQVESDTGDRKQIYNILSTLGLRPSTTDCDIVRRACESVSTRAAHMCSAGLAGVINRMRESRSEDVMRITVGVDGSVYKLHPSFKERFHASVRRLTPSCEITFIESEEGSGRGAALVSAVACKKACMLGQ
# testProtocol: Allosteric activation of human glucokinase using glucose as substrate measured every 10 secs for 5 mins
testReadout: EC50 (nM)
Give the value, in units of nM, as a plain number.

# annotated cases, reported EC50 shown
CCc1csc(Nc2ncc(Br)cc2OCc2ccccc2)n1    562
Cc1csc(Nc2ncc(SCc3ccccc3)cc2OCc2ccccc2)n1    235
Cc1csc(Nc2ncccc2OCc2cccnc2)n1    7780
CC(C)c1csc(Nc2ncc(Br)cc2OCc2ccccc2)n1    240
Cc1csc(Nc2ncc(SCCn3ccnc3)cc2OCc2ccccc2)n1    325

I have this compound here, Cc1csc(Nc2ncc(Sc3ccccn3)cc2OCc2ccccc2)n1 , and I need its recorded EC50.
231

Look up EC50: Cc1csc(Nc2ncc(Br)cc2OCc2ccccc2)n1
687

What value of measured EC50 is listed for Cc1csc(Nc2ncccc2OCc2cccc(O)c2)n1 ?
3440

# input compound: CC(C)Cc1csc(Nc2ncc(Br)cc2OCc2ccccc2)n1 ; wanted: its EC50
356

EC50 lookup needed for Cc1csc(Nc2ncc(SCc3ccccn3)cc2OCc2ccccc2)n1 , thanks.
77

Quick one: EC50 of COc1cccc(COc2cccnc2Nc2nc(C)cs2)c1 ?
3220

So what does the record say about EC50 for Cc1csc(Nc2ncc(Cl)cc2OCc2ccccc2)n1 ?
796

# get_value(readout='EC50', item= Cc1csc(Nc2ncccc2OCc2ccccn2)n1 )
12300

If you can, please state the reported EC50 value of Cc1csc(Nc2ncccc2OCc2cccc3cccnc23)n1 .
1700

Reported EC50 for Cc1csc(Nc2ncc(Sc3ccccc3)cc2OCc2ccccc2)n1 : what is it?
208

* * *

# testProtocol: Terminal plasma concentration in C57BL/6J mouse at 50 mg/kg, po administered 30 mins measured after 2.5 hrs
# Type: ADME, organism-based
# Design: dose 50 mg/kg, route oral
# assaySetup: read-out: Cp(T)
testReadout: concentration at 2.5 h (µg/mL)
The response must be a number in µg/mL with no trailing unit.

I would be grateful if you could share the reported concentration at 2.5 h for CC(C)c1csc(Nc2ncc(SCCn3ccnc3)cc2OCc2ccccc2)n1 .
4.5

Value source: ChEMBL document CHEMBL2429745
